measured-target: hERG potassium channel (Homo sapiens)
Construct: host or cells: HEK 293 T-REx
Sequence (Q12809 whole entry): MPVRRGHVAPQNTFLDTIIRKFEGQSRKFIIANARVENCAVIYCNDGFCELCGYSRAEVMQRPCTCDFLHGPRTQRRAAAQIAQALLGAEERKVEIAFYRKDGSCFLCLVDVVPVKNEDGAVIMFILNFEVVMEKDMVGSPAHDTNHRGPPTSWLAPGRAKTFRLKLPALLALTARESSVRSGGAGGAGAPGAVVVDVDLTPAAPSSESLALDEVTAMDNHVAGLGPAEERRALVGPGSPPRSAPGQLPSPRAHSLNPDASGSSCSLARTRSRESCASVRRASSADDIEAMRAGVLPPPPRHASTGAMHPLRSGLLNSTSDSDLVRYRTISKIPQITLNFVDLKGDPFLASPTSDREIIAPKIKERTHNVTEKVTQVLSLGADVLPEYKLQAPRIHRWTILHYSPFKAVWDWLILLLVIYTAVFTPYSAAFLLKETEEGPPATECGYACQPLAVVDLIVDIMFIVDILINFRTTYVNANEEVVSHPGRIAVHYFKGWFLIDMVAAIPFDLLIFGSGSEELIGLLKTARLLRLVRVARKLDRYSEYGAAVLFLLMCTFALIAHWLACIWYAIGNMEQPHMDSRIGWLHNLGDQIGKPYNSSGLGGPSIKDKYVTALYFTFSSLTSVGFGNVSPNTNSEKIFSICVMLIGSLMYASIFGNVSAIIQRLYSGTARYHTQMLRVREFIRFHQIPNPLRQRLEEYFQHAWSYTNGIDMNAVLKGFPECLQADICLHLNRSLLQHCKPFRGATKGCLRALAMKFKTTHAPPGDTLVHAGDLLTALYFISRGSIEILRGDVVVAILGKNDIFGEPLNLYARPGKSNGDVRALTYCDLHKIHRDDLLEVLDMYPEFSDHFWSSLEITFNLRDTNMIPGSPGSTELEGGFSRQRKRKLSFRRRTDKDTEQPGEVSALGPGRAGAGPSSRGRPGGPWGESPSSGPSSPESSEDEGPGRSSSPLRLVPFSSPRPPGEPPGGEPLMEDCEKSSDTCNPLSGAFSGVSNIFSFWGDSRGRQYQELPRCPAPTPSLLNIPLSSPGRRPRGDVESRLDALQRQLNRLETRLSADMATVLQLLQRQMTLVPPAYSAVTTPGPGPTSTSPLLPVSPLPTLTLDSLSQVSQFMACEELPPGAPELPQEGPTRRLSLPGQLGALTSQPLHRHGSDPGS
protocol: Whole cell patch clamp, HEK 293 T-REx HERG cells
Type: cell-based
reported-conditions: estimated by Hill fit with hill=1, ymax=100; tested at 10 μM, n=2; read-out: IC50 (μM) hERG
With a cut-off of 9 µM, any IC50 strictly below it is called Criterion met; any IC50 meeting it or above is called Criterion not met.

Report whether reported IC50 is lower than 9 µM (strictly) for `Cc1nc(Nc2ccc(Cl)cc2)sc1C(=O)N[C@@H]1CCC[C@H]1OCc1ccccc1`
Criterion not met

Thanks! And `Cc1nc(Nc2ccc(Br)cc2)sc1C(=O)NCc1cccc2ccccc12` ?
Criterion met

Thanks! And `COc1ccc(CNC(=O)c2sc(Nc3ccc(Br)cc3)nc2C)cc1` ?
Criterion met

Thanks! And `Cc1nc(Nc2ccc(Br)cc2)sc1C(=O)NCc1ccc(N(C)C)cc1` ?
Criterion not met

Thanks! And `Cc1nc(Nc2ccc(Br)cc2)sc1C(=O)N[C@@H](C)c1ccc2ccccc2c1` ?
Criterion not met

Thanks! And `COc1ccccc1Nc1nc(C)c(C(=O)N[C@@H](C)c2ccc3ccccc3c2)s1` ?
Criterion not met

Thanks! And `COc1cc(CNC(=O)c2sc(Nc3ccc(Br)cc3)nc2C)cc(OC)c1` ?
Criterion met

* * *

assay-readout: melting point

For COc1ccccc1Nc1nc(C)c(C(=O)NCC2COc3ccccc3O2)s1 (stereo not drawn) [Compound 217] , what is its reported melting point?
138.3 to 158.2 °C

Thanks! And COc1ccccc1Nc1nc(C)c(C(=O)NC2CCCc3ccccc32)s1 (stereo not drawn) [Compound 173] ?
129.4 °C

Thanks! And COc1ccccc1Nc1nc(C)c(C(=O)N2CCCC2c2ccc(F)cc2)s1 (stereo not drawn) [Compound 177] ?
94.4 to 106.6 °C

Thanks! And COc1ccccc1Nc1nc(C)c(C(=O)N2CC=C(c3ccc(F)cc3)CC2)s1 [Compound 163] ?
144.4 to 149.2 °C

Thanks! And COc1ccccc1Nc1nc(C)c(C(=O)OCc2ccccc2)s1 [Compound 123] ?
98.4 to 100 °C

Thanks! And COc1ccccc1Nc1nc(C)c(C(=O)NCc2ccccc2C)s1 [Compound 140] ?
118.3 to 121.7 °C

Thanks! And COc1ccccc1Nc1nc(C)c(C(=O)NCc2cccc(-c3ccccc3)c2)s1 [Compound 144] ?
126.6 to 128.3 °C

Thanks! And COc1ccccc1Nc1nc(C)c(C(=O)NC2CCN(Cc3ccccc3)C2)s1 (stereo not drawn) [Compound 215] ?
112.6 to 121.6 °C

Thanks! And Cc1nc(NC(=O)c2ccc(C(N)=O)cc2)sc1C(=O)N[C@H]1CCC[C@@H]1OCc1ccccc1 [Compound 213] ?
213.8 to 218.9 °C

* * *

measured-target: human Kv4.3 (Homo sapiens)
Construct: expressed in transfected cells; host or cells: transgenic C. elegans strain UG1755 (N2 injected with plasmid pGV8, integrated array)
Sequence (Q9UK17 whole entry): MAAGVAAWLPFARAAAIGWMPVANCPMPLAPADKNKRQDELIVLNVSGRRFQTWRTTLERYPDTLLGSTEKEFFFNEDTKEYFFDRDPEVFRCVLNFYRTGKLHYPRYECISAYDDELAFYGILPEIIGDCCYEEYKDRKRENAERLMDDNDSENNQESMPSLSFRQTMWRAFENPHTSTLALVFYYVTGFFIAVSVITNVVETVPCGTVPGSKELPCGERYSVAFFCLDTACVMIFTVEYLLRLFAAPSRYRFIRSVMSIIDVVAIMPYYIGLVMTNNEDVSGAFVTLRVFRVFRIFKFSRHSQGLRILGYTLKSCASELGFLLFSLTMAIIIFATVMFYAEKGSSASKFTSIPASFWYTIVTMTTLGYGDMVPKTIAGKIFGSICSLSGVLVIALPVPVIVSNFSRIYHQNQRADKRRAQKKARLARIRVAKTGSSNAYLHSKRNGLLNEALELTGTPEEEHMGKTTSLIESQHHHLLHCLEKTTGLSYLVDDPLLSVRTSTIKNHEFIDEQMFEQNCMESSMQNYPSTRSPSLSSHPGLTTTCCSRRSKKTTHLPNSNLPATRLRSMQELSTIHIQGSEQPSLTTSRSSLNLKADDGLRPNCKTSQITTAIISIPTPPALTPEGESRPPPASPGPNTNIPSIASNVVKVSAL
protocol: C. elegans based high-throughput screen for Kv4.3 modulators (pharynx pumping, Calcein AM uptake), transgenic strain UG1755
Type: in vivo
reported-conditions: EC50 on N2 divided by EC50 on the Kv4.3 expressing strain; cut-off 1.8
Provide the recorded Ratio N2/Kv4.3 for the entries that follow.
Number, no unit, nothing else.

Kindly state the measured Ratio N2/Kv4.3 obtained for C[C@@H](NC(=O)c1csc(Nc2ccc(F)cc2)n1)c1ccc([N+](=O)[O-])cc1 [Compound 36] with human Kv4.3 (Homo sapiens).
2.0

Thanks! And O=C(N[C@@H]1CCC[C@H]1OCc1ccccc1)c1csc(Nc2ccccc2)n1 [Compound 48] ?
14.9

Thanks! And Cc1cccc(C)c1Nc1nc(C(=O)N[C@H](C)c2ccc([N+](=O)[O-])cc2)cs1 [Compound 43] ?
1.8

Thanks! And Cc1cc(C)cc(Nc2nc(C(=O)N[C@H]3CCCC[C@@H]3OCc3ccccc3)cs2)c1 [Compound 46] ?
2.8

Thanks! And Cc1nc(Nc2ccc(Br)cc2)sc1C(=O)NCc1ccc([N+](=O)[O-])cc1 [Compound 23] ?
2.8

Thanks! And Cc1nc(Nc2ccc(Br)cc2)sc1C(=O)N[C@@H](C)c1ccc2ccccc2c1 [Compound 18] ?
2.4

Thanks! And Cc1cc(C)cc(Nc2nc(C(=O)N[C@@H]3CCC[C@H]3OCc3ccccc3)cs2)c1 [Compound 45] ?
28.0

Thanks! And Cc1nc(Nc2ccc(F)cc2)sc1C(=O)N[C@@H](C)c1ccc2ccccc2c1 [Compound 15] ?
2.4

* * *

Provide the recorded remaining activity at 1 µM for the entries that follow.
measured-target: human Kv4.3/KChIP2.2 potassium channel (Homo sapiens, UniProt Q9UK17)
Construct: expressed in transfected cells
protocol: Whole cell patch clamp, CHO-K1 cells stably expressing human Kv4.3/KChIP2.2
Format: cell-based
reported-conditions: CHO-K1; remaining current measured after application of the compound and relative to the blank; read-out: Kv4.3 charge in %
Protocol: For this experiment, a recombinant CHO-K1 cell line stably expressing the human Kv4.3/KChIP2.2 potassium channel was used. […] Activity of the human Kv4.3/KChIP2.2 channel was investigated using the patch clamp technique in its whole cell mode. This means that the current needed for clamping the whole cell expressing the K^+-channel protein to a specific potential was measured. […]
State the answer as a number, implicitly in %.

For `COc1ccccc1Nc1nc(C)c(C(=O)NCc2cc(C)ccc2C)s1` , what is its reported remaining activity at 1 µM?
90

Thanks! And `COc1ccccc1Nc1nc(C)c(C(=O)NC2Cc3ccccc3C2)s1` ?
77

Thanks! And `COc1ccccc1Nc1nc(C)c(C(=O)NCc2ccc(Br)cc2)s1` ?
59

Thanks! And COc1ccccc1Nc1nc(C)c(C(=O)N2CCCCC2Cc2ccccc2)s1 (stereo not drawn) ?
79

Thanks! And `COc1ccccc1Nc1nc(C)c(C(=O)NCc2ccc(-c3csnn3)cc2)s1` ?
75

Thanks! And `COc1ccccc1Nc1nc(C)c(C(=O)N2Cc3ccccc3C2)s1` ?
87

Thanks! And `Cc1nc(Nc2cccc3cccnc23)sc1C(=O)N[C@H]1CCC[C@@H]1OCc1ccccc1` ?
49

Thanks! And `COc1ccccc1Nc1nc(C)c(C(=O)NCCOCc2ccccc2)s1` ?
85

Thanks! And `COc1ccccc1Nc1nc(C)c(C(=O)NCc2c(C)cccc2Cl)s1` ?
59

* * *

measured-target: hERG potassium channel (Homo sapiens)
Construct: host or cells: HEK 293 T-REx
protocol: Whole cell patch clamp, HEK 293 T-REx HERG cells
Format: cell-based
reported-conditions: percent value, test concentration not given
Method: For this experiment HEK 293 T-REx HERG cells (#23) were used. This cell line made by IonGate is characterized by the inducible expression of the hERG gene. […] Activity of the cardiac hERG channel was investigated using the patch clamp technique in its whole cell mode. This means that the current needed for clamping the whole cell expressing the K^+-channel protein to a specific potential was measured. […]
Provide the recorded hERG for the entries that follow.
Reply with the number, then its unit.

For `Cc1nc(Sc2ccccc2)sc1C(=O)N[C@H]1CCC[C@@H]1OCc1ccccc1` , what is its reported hERG?
88%

Thanks! And `COc1ccccc1Nc1ccc(C(=O)N[C@H]2CCC[C@@H]2OCc2ccccc2)s1` ?
76%

Thanks! And `COc1ccccc1Nc1nc(C)c(C(=O)NCc2c(C)cccc2Cl)s1` ?
38%

Thanks! And `Cc1nc(NC(=O)c2ccc(C(C)(C)C)cc2)sc1C(=O)N[C@H]1CCC[C@@H]1OCc1ccccc1` ?
64%

Thanks! And `Cc1nc(Nc2ccc3c(c2)OCCO3)sc1C(=O)N[C@H]1CCC[C@@H]1OCc1ccccc1` ?
76%

Thanks! And `Cc1nc(Nc2cccc3cccnc23)sc1C(=O)N[C@H]1CCC[C@@H]1OCc1ccccc1` ?
69%

Thanks! And `COc1ccccc1Nc1nc(C)c(C(=O)NCc2ccc(N(C)C)cc2)s1` ?
67%

Thanks! And `COc1ccccc1Nc1nc(C)c(C(=O)NCc2ccccc2SC)s1` ?
55%

Thanks! And `COc1ccccc1Nc1nc(C)c(C(=O)NCc2ccc(Br)cc2)s1` ?
19%

Thanks! And `COc1ccccc1Nc1nc(C)c(C(=O)NCc2ccc(C(C)(C)C)cc2)s1` ?
31%

Thanks! And `COc1ccccc1Nc1nccc(C(=O)N[C@H]2CCC[C@@H]2OCc2ccccc2)n1` ?
34%

Thanks! And `Cc1nc(Nc2cccc3ccccc23)sc1C(=O)N[C@H]1CCC[C@@H]1OCc1ccccc1` ?
59%

Thanks! And `COc1ccccc1Nc1nc(C)c(C(=O)NCc2ccc3c(c2)CCO3)s1` ?
43%

* * *

Provide the recorded pIC50 for the entries that follow.
measured-target: human Kv4.3/KChIP2.2 potassium channel (Homo sapiens, UniProt Q9UK17)
Construct: expressed in transfected cells
protocol: Whole cell patch clamp, CHO-K1 cells stably expressing human Kv4.3/KChIP2.2
Format: cell-based
reported-conditions: Kv4.3 mediated current, charge; patch clamp; read-out: Kv4.3 charge IC50
Quick note: pIC50 means taking -log10 of the concentration in moles per liter.

For Cc1nc(Nc2ccc(Br)cc2)sc1C(=O)NCc1ccccn1 [Compound 59] , what is its reported pIC50?
5.51

Thanks! And Cc1nc(Nc2ccc(Cl)cc2)sc1C(=O)N[C@@H]1CCC[C@H]1OCc1ccccc1 [Compound 30] ?
5.90

Thanks! And Cc1nc(Nc2ccc(F)cc2)sc1C(=O)N[C@H]1CCC[C@@H]1OCc1ccccc1 [Compound 67] ?
5.71

Thanks! And C[C@@H](NC(=O)c1csc(Nc2ccccc2)n1)c1ccc([N+](=O)[O-])cc1 [Compound 47] ?
5.74
